ASSAY TARGET: T1, cynomolgus Hepcidin-25 (cynomolgus, UniProt A7XEI3 60-84, not fully specified)
T1 construct: mature
T1 peptide: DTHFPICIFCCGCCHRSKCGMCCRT
ASSAY INFO: direct ELISA on cynomolgus hep-25, mutein titrated
EXPERIMENTAL READOUT: Kd (nM)
The reply should contain only the number, in nM.

Give recorded Kd. lipocalin mutein of SEQ ID NO: 12 (designed binder, also called Lcn2 mutein) QDSTSDLIPAPPLSKVPLQQNFQDNQFHGKWYVVGLAGNEVLREDKDPMKMWATIYELKEDKSYNVTIVMFLAEECEYLFQTFVPGSQPGEFTLGDIKSSPGRTSGLVRVVSTNYNQHAMVFFKVVWQNREVFWITLYGRTKELTSELKKNFIRFSKSLGLPENHIVFPVPIDQCIDG 0.96

Give recorded Kd. lipocalin mutein of SEQ ID NO: 1, linked to albumine-binding domain (ABD) (SEQ ID NO: 15) (designed binder, also called ABD-fusion protein) QDSTSDLIPAPPLSKVPLQQNFQDNQFHGKWYVVGLAGNEVLREDKDPMKMWATIYELEEDKSYNVTIVMFLAKKCEYLFQTFVPGSQPGEFTLGDIKSSPGRTSGLVRVVSTNYNQHAMVFFKVVWQNREVFWITLYGRTKELTSELKENFIRFSKSLGLPENHIVFPVPIDQCIDGSAGAVDANSLAEAKVLANRELDKYGVSDYYKNLINNAKTVEGVKALIDEILAALPSAWSHPQFEK 0.22

Next item in the queue.
Give recorded Kd. lipocalin mutein of SEQ ID NO: 10 (designed binder, also called Lcn2 mutein) QDSTSDLIPAPPLSKVPLQQNFQDNQFHGKWYVVGLAGNEILREDKDPMKMWATIYELKEDRSYNVTIVMFLAKKCEYLFQTFVPGSQPGEFTLGDIKSSPGRTSGLVRVVSTNYNQHAMVFFKVVWQNREVFWITLYGRTKELTPELKENFIRFSKSLGLPENHIVFPVPIDQCIDGF 0.82

Just for reference, patent US20170369542A1 is where these values come from.
